Consider the following molecules and their measured remaining at 1 h, 10 μM readings.
assay: Stability in simulated gastric fluid (SGF); conditions: simulated gastric fluid (SGF), pH 1.2

- C[C@@H](O)[C@H]1C(=O)N2C(C(=O)O)=C(S[C@@H]3CN[C@H](C(=O)Nc4cccc(C(=O)O)c4)C3)[C@H](C)[C@H]12 [Ertapenem, reference compound]: 0%

Reported remaining at 1 h, 10 μM of C[C@@H](O)[C@H]1C(=O)N2C(C(=O)O)=C(S[C@@H]3CN[C@H](C(=O)N(C)C)C3)[C@H](C)[C@H]12 [Meropenem, reference compound] : 111%

* * *

assay: In vitro plasma stability, CD-1 mouse plasma; conditions: 2 μM, 37 °C, time point 120 min
Readout name: Plasma stability % Remaining, Mouse (%)
Reply numerically in %, unit not repeated.

• NCc1ccccc1CC(=O)N[C@@H]1C(=O)N2C(C(=O)O)=C(CSc3nnnn3CCO)CS[C@H]12 [TBBL-0000656] = 95.0
• CCc1nnc(SCC2=C(C(=O)O)N3C(=O)[C@@H](NC(=O)Cc4ccc(C5=NCCN5)cc4)[C@H]3SC2)s1 [TBBL-0000310] = 82.2

Summary for this compound, CON=C(C(=O)N[C@@H]1C(=O)N2C(C(=O)O)=C(CSc3cccc[n+]3[O-])CS[C@H]12)c1csc(N)n1 [TBBL-0000539] : Plasma stability % Remaining, Mouse is 92.4
